Test system: SK-OV-3
assay.comment: NCI tumour cell line growth inhibition, 48 h
Activity calls are given as the source filed them. No stated cut-off is given here; in the data, active = GI50 up to about 1.1 µM and inactive = higher.
Hi! Could you answer with just one of these? active, inactive

Enquiry: Assay result, entry O=C(O)C1CCCN1Cc1cc2ccccc2c2ccccc12 (stereo not given) — outcome?
Return: inactive

Enquiry: Assay result, entry CNC(=O)CCCNC(=O)CCCC(=O)N(C)C — outcome?
Return: inactive

Enquiry: Assay result, entry Cc1[nH]c(-c2ccccc2)c2nc(N(C)C)oc(=O)c12 — outcome?
Return: inactive

Enquiry: Assay result, entry CC(C(=O)ON1C(=O)CCC1=O)c1ccc(C(=O)c2ccccc2)s1 (stereo not given) — outcome?
Return: inactive

Enquiry: Assay result, entry Nc1ccc2c(O)cc(O)nc2n1 — outcome?
Return: inactive

Enquiry: Assay result, entry CNc1ccc([N+](=O)[O-])c2c(NCCCN(C)C)ccnc12 — outcome?
Return: inactive

Enquiry: Assay result, entry CCN(CC)Cc1c(/C=C\c2cc(OC)c(OC)c(OC)c2)ccc(OC)c1O — outcome?
Return: inactive

Enquiry: Assay result, entry OC1(c2ccc(-c3ccccc3)cc2)c2ccccc2C2=NCCN21 (stereo not given) — outcome?
Return: inactive

Enquiry: Assay result, entry CC(=O)NC1C(OCc2ccccc2)OC(CO)C(O)C1OC(C)C(=O)NC(C)C(=O)NC(CCC(=O)NCCCCNc1c2ccccc2nc2cccc([N+](=O)[O-])c12)C(N)=O (stereo not given) — outcome?
Return: active

Enquiry: Assay result, entry Cc1ccc(N2C3=C(CC4=C2CC(C)(C)CC4=O)C(=O)CC(C)(C)C3)cc1 — outcome?
Return: inactive

###

System: UACC-257
assay.comment: NCI tumour cell line growth inhibition, 48 h
Active and inactive are the calls of the source. Rule as the data show it: active = GI50 up to about 1.1 µM and inactive = higher.
reported.metric: GI50

Enquiry: # query: GI50 of entry O=S(=O)(O)c1ccc(/N=N/c2ccc(/N=N/c3c(O)ccc4ccc(S(=O)(=O)O)cc34)cc2)cc1
Return: > 100 µM (inactive)

Enquiry: # query: GI50 of entry CC1=CC(=O)C(=O)C2=C1OC1(C2)C(C)CCC2C3(C)CCC(O)C(C)(C)C3CCC21C (stereo not drawn)
Return: 18.9 µM (inactive)

Enquiry: # query: GI50 of entry NNC(=O)CCCCCCCC(=O)O
Return: > 100 µM (inactive)

Enquiry: # query: GI50 of entry C#CCNC(CCCNC(=N)N)C(=O)O (stereo not drawn)
Return: > 100 µM (inactive)

Enquiry: # query: GI50 of entry CCCc1cc2c(cc1O)CC[C@@H]1[C@@H]2CC[C@]2(C)[C@@H](O)CC[C@@H]12
Return: 13.1 µM (inactive)

Enquiry: # query: GI50 of entry COc1ccc(C(=O)c2ccc(-n3c4ccccc4c4ccc5c(c43)C(=O)C=CC5=O)cc2)cc1
Return: 2.54 µM (inactive)

Enquiry: # query: GI50 of entry COC(=O)CCC(=O)C(C#N)c1ccc(Cl)cc1Cl (stereo not drawn)
Return: > 100 µM (inactive)

Enquiry: # query: GI50 of entry CC(=O)c1ccc(NC(=O)/C(Cc2ccccn2)=N/NC(=O)C[N+](C)(C)C)cc1
Return: > 100 µM (inactive)

###

System: SNB-75
assay.comment: NCI tumour cell line growth inhibition, 48 h
The source made the active and inactive calls. No stated cut-off is given here; in the data, active = GI50 up to about 1.1 µM and inactive = higher.
Hi! Could you answer with just one of these? 1 = active, 0 = inactive

Enquiry: Assay result, entry CCOc1ccc(/C=N\N2C(=O)c3ccccc3C2=O)cc1 — outcome?
Return: 0

Enquiry: Assay result, entry COc1cccc2c(=O)c3c(O)c4cc(N(C)C)ccc4c(OC(C)=O)c3oc12 — outcome?
Return: 0

Enquiry: Assay result, entry N/C(S)=N/N=C/c1ncccc1O — outcome?
Return: 0

Enquiry: Assay result, entry c1cncc(CSc2ncnc3[nH]cnc23)c1 — outcome?
Return: 0

Enquiry: Assay result, entry CCc1cc(C)cc2[n+]1CC=C2.[O-][Cl+3]([O-])([O-])[O-] — outcome?
Return: 0

Enquiry: Assay result, entry CO[C@@H]1[C@H](O)CC[C@]2(CO2)[C@H]1[C@@]1(C)O[C@@H]1CC=C(C)C — outcome?
Return: 0

Enquiry: Assay result, entry O=C(N/N=C/c1ccco1)c1cc(I)cc(I)c1O — outcome?
Return: 0

Enquiry: Assay result, entry COC(=O)C1=C(c2ccc3c(c2)OCO3)OC(c2cc(OC)c(OC)c(OC)c2)C1 (stereo unspecified) — outcome?
Return: 0

Enquiry: Assay result, entry N#Cc1c(Cl)cc(Cl)n2c1nc1ccccc12 — outcome?
Return: 0

Enquiry: Assay result, entry COc1ccc(Nc2nc(N)c(C(=O)c3ccccc3)s2)cc1 — outcome?
Return: 1

Enquiry: Assay result, entry CCCN(CCC)C(=O)c1nc(N)nc(-c2ccc(OC)cc2)c1-c1ccc(OC)cc1 — outcome?
Return: 0

###

Tested on: EKVX
assay.comment: NCI tumour cell line growth inhibition, 48 h
The source made the active and inactive calls. Cut-off read from the data, not from the text of the source: active = GI50 up to about 1.1 µM and inactive = higher.
Hi! Could you answer with just one of these? active, inactive

Enquiry: Assay result, entry COC(=O)C1=C(C)C(=O)C2(CCCCCC2C(=O)OC)C1 (stereo not given) — outcome?
Return: inactive

Enquiry: Assay result, entry O=C(O)c1ccc(/C=N/N=C2c3ccccc3-c3ccccc32)cc1 — outcome?
Return: inactive

Enquiry: Assay result, entry O=c1[nH]c(=O)n(COC(CO)CO)cc1-c1ccccc1 — outcome?
Return: inactive

Enquiry: Assay result, entry CN(C)CCNc1ccc2ncn3c4ccc(O)cc4c(=O)c1c23 — outcome?
Return: inactive

Enquiry: Assay result, entry Cc1cccc(C)c1NC(=S)NC=C(C(N)=O)C(N)=O — outcome?
Return: inactive

Enquiry: Assay result, entry O=C(/C=C/c1ccc(Oc2cc(C(=O)/C=C/c3ccc(O)cc3)c(O)cc2O)cc1)c1ccc(O)cc1O — outcome?
Return: inactive

Enquiry: Assay result, entry CCN(CC)CCC1CCCCN1CC(=O)N1c2ccccc2NC(=O)CC1C (stereo not given) — outcome?
Return: inactive

Enquiry: Assay result, entry COc1cc(OC)cc(Oc2nc3cc(F)c(F)cc3nc2-c2ccccc2)c1 — outcome?
Return: inactive

Enquiry: Assay result, entry NC1CC2NC3CCCCC3NC2CC1N (stereo not given) — outcome?
Return: inactive

Enquiry: Assay result, entry C[C@]12CC[C@@H]3c4ccc(OC(=O)N(CCCl)CCCl)cc4CC[C@H]3[C@@H]1CC[C@@H]2O — outcome?
Return: active

###

Field: GI50. Provide a value for each of the molecules that follow.
Test system: RXF 631
assay.comment: NCI tumour cell line growth inhibition, 48 h
Activity calls are given as the source filed them. No stated cut-off is given here; in the data, active = GI50 up to about 1.1 µM and inactive = higher.

Enquiry: # query: GI50 of entry CCOC(=O)NC(=O)c1cn(CCCOC(=O)CCCCCCCCCCC(=O)OCCCn2cc(C(=O)NC(=O)OCC)c(=O)[nH]c2=O)c(=O)[nH]c1=O
Return: 37.3 µM (inactive)

Enquiry: # query: GI50 of entry CN1NC(c2ccccc2)=C(C#N)C(=O)CC1c1ccccc1Cl (stereo not given)
Return: > 100 µM (inactive)

Enquiry: # query: GI50 of entry CCc1cccc(C(C)C)c1NC(=O)/C(=N\NC(N)=O)C(C(=O)OC)c1cnc2ccccc2n1 (stereo not given)
Return: 55.2 µM (inactive)

Enquiry: # query: GI50 of entry Fc1cccc(C2SCc3nc4ccccc4n32)c1 (stereo not given)
Return: 32.7 µM (inactive)

Enquiry: # query: GI50 of entry CC(=O)c1ccc(NC(=O)/C(Cc2ccccn2)=N/NC(=O)C[N+](C)(C)C)cc1
Return: > 100 µM (inactive)

###

Test system: SK-MEL-28
assay.comment: NCI tumour cell line growth inhibition, 48 h
Calls of active or inactive are those of the source. Cut-off read from the data, not from the text of the source: active = GI50 up to about 1.1 µM and inactive = higher.
reported.metric: GI50

Enquiry: # query: GI50 of entry O=[N+]([O-])c1ccc(-c2noc(-c3ccc(Cl)cc3)c2C2=NCCN2)cc1
Return: > 100 µM (inactive)

Enquiry: # query: GI50 of entry CCN(CC)Cc1c(/C=C\c2cc(OC)c(OC)c(OC)c2)ccc(OC)c1O
Return: 15 µM (inactive)

Enquiry: # query: GI50 of entry COc1cc2c(c(OC)c1OC)-c1ccc(OC)c(=O)cc1[C@@H](NC(=O)c1ccccc1)CC2
Return: 1.86 µM (inactive)

Enquiry: # query: GI50 of entry O=C(O)C#Cc1ccc([N+](=O)[O-])cc1
Return: > 100 µM (inactive)

Enquiry: # query: GI50 of entry CCOC(=O)[C@@]12C(C)=CC(=O)O[C@]1(C)C1C(=O)NC(=O)C12 (some centres undefined)
Return: > 100 µM (inactive)

Enquiry: # query: GI50 of entry CN(C)c1ccc(/C=C2\C[C@H]3[C@@H]4CC=C5C[C@@H](O)CC[C@]5(C)[C@H]4CC[C@]3(C)[C@H]2O)cc1
Return: 20.4 µM (inactive)

Enquiry: # query: GI50 of entry O=C(Nc1nnc(S)[nH]1)C(=O)C(C(=O)c1ccc2ccccc2c1)C1OC(=O)c2ccccc21 (centres undefined)
Return: 14.8 µM (inactive)

Enquiry: # query: GI50 of entry CC(C)=NN/C(=N\c1ccc(Cl)cc1)NS(=O)(=O)c1ccc(C)cc1
Return: 85.5 µM (inactive)

Enquiry: # query: GI50 of entry OC1(c2ccc(-c3ccccc3)cc2)c2ccccc2C2=NCCN21 (centres undefined)
Return: 21.7 µM (inactive)

Enquiry: # query: GI50 of entry CC(C)C(C)C(O)C(O)C(C)C1CCC2C3COC(=O)C4CC(O)C(O)CC4(C)C3CCC12C (centres undefined)
Return: > 100 µM (inactive)

Enquiry: # query: GI50 of entry Nc1c(-c2cn(Cc3ccccc3)c3ccccc23)[n+]([O-])c2ccccc2[n+]1[O-]
Return: 25.4 µM (inactive)

Enquiry: # query: GI50 of entry CCOc1ccc(/C=N\N2C(=O)c3ccccc3C2=O)cc1
Return: > 100 µM (inactive)

Enquiry: # query: GI50 of entry O=C(/C=C/c1ccc(Oc2cc(C(=O)/C=C/c3ccc(O)cc3)c(O)cc2O)cc1)c1ccc(O)cc1O
Return: 2.52 µM (inactive)

Enquiry: # query: GI50 of entry O=C(O)c1ccc(/C=N/N=C2c3ccccc3-c3ccccc32)cc1
Return: 62.4 µM (inactive)

Enquiry: # query: GI50 of entry Nc1nc(N)c2nc(CN(C=O)c3ccc(C(=O)O)cc3)cnc2n1
Return: > 100 µM (inactive)

Enquiry: # query: GI50 of entry COC(=O)C1=C(c2ccc3c(c2)OCO3)OC(c2cc(OC)c(OC)c(OC)c2)C1 (centres undefined)
Return: > 100 µM (inactive)

Enquiry: # query: GI50 of entry CCCCC(=O)OC[n+]1ccc2c(C)c3[nH]c4ccc(OC)cc4c3c(C)c2c1
Return: 1.32 µM (inactive)

Enquiry: # query: GI50 of entry COc1cc(NCc2ccc3nc(-c4ccccc4)c(N)nc3c2)cc(OC)c1OC
Return: 27.4 µM (inactive)

Enquiry: # query: GI50 of entry CCc1cc(C)cc2[n+]1CC=C2.[O-][Cl+3]([O-])([O-])[O-]
Return: 27.2 µM (inactive)
